- TARGET OF ASSAY: hGYS1 enzyme (recombinant hGYS1/GN1 protein) (Homo sapiens (Human))
- Sequence (P13807 whole entry): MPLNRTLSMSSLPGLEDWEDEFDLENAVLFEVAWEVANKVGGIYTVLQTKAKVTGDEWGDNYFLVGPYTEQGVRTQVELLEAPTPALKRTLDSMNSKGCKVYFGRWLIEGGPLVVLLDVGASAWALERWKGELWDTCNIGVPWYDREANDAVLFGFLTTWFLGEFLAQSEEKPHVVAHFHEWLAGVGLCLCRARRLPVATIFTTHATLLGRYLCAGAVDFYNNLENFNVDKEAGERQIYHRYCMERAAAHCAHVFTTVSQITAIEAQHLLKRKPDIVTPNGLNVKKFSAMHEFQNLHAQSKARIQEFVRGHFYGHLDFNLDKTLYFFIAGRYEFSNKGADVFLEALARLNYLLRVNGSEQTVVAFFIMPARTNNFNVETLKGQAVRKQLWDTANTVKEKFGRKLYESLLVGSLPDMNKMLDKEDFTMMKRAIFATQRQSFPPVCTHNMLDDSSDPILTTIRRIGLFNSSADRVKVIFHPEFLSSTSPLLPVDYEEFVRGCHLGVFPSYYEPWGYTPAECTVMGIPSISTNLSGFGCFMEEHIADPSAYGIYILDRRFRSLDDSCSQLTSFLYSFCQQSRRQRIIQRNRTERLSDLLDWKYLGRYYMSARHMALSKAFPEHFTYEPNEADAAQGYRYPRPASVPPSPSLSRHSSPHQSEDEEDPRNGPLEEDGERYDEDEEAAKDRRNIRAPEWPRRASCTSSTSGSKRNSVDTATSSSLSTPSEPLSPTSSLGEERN
- Sequence (P46976 whole entry partner): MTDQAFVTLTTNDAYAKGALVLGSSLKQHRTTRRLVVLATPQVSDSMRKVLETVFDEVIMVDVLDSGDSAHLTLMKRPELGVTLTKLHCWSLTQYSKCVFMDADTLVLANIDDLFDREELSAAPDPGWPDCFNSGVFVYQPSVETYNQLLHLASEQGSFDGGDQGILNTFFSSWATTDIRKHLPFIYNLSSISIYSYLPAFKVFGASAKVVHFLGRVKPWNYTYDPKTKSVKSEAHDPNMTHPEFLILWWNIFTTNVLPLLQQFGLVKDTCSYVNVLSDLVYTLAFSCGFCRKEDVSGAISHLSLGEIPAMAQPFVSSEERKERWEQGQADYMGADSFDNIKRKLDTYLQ
- RUN DESCRIPTION: GYS1 coupled enzyme assay (PK/LDH)
- TEST SETTINGS: hGYS1/GN1 50 nM, UDP-Glucose 0.8 mM, G6P 1 mM; geometric mean of at least 2 runs
READOUT LABEL: IC50 (nM)

// worked examples, IC50 included
{"MOLECULE": "CC(C)c1ccc([C@@H](NC(=O)[C@@H]2C[C@@H](F)CN2C(=O)[C@@H]2CCC(=O)N2C)c2ccccc2)cc1 [Compound 57]", "UNITS": "nM", "IC50": 231}
{"MOLECULE": "CC(C)c1ccc([C@H](NC(=O)[C@@H]2C[C@@H](F)CN2C(=O)Cc2cnn[nH]2)c2cccc(F)c2)cc1F [Compound 647]", "UNITS": "nM", "IC50": 1640}

[A] CC(=O)N1CC(C)(CC(=O)N2C[C@H](F)C[C@H]2C(=O)N[C@@H](c2ccccc2)c2ccc(C(C)C)cc2)C1 [Compound 154]
[B] O=C(N[C@@H](c1ccccc1)c1ccc(C2CC2)c(F)n1)[C@@H]1[C@H]2C[C@H]2CN1C(=O)Cc1cnn[nH]1 [Compound 320]
Of A and B , which one carries the higher reported IC50? Answer by quoting the chosen item's label. A

[1] CN(C)C(=O)NCC(=O)N1C[C@H](F)C[C@H]1C(=O)N[C@H](c1ccccc1)c1ccc(C2CC(F)(F)C2)c(F)c1 [Compound 548]
[2] Cc1cn(CC(=O)N2C[C@H](F)C[C@H]2C(=O)N[C@@H](c2ccccc2)c2ccc(C3CC(F)(F)C3)c(F)n2)c(=O)[nH]c1=O [Compound 506]
I'm curious, which of these has a smaller IC50 number: 1 or 2 ? Returns: label corresponding to the selected item. 2

[1] CC(C)c1ccc([C@@H](NC(=O)[C@@H]2C[C@@H](F)CN2C(=O)c2cccc(-n3cncn3)c2)c2ccccc2)cc1 [Compound 123]
[2] CC(C)c1ccc([C@@H](NC(=O)[C@@H]2C[C@@H](F)CN2C(=O)CNC(=O)N2CCN(CC(F)(F)F)CC2)c2ccccc2)nc1 [Compound 281]
Given the two records 1 and 2 , choose the one whose IC50 value is lower. Refer to your chosen item by its label in the answer. 2

---

- TARGET OF ASSAY: hGYS1 enzyme (recombinant hGYS1/GN1 protein) (Homo sapiens (Human))
- RUN DESCRIPTION: GYS1 coupled enzyme assay (PK/LDH)
- TEST SETTINGS: hGYS1/GN1 50 nM, UDP-Glucose 0.8 mM, G6P 1 mM; geometric mean of at least 2 runs
READOUT LABEL: IC50 (nM)

Some compounds with recorded IC50:
{"COMPOUND": "CC(C)c1ccc([C@@H](NC(=O)[C@@H]2C[C@@H](F)CN2C(=O)Cn2ccnn2)c2ccccc2)cc1F", "UNITS": "nM", "IC50": 23}
{"COMPOUND": "O=C(N[C@@H](c1ccccc1)c1ccc(C2CC2)c(F)c1)[C@@H]1C[C@@H](F)CN1C(=O)CN1Cc2ccccc2C1=O", "UNITS": "nM", "IC50": 77}
{"COMPOUND": "CC(C)c1ccc([C@@H](NC(=O)[C@@H]2CCCN2C(=O)C2CC2)c2ccccc2)cc1", "UNITS": "nM", "IC50": 862}
{"COMPOUND": "CC(C)c1ccc([C@@H](NC(=O)[C@@H]2C[C@@H](F)CN2C(=O)Cn2ccc(C(F)(F)F)n2)c2ccccc2)nc1F", "UNITS": "nM", "IC50": 8}
{"COMPOUND": "CC(C)c1c(F)cc(C(NC(=O)[C@@H]2C[C@@H](F)CN2C(=O)Cn2ccnn2)c2ccccc2)cc1F (single isomer, unassigned)", "UNITS": "nM", "IC50": 25}

[I] CC(C)c1ccc([C@@H](NC(=O)[C@@H]2C[C@@H](F)CN2C(=O)Cc2ccon2)c2ccccc2)cc1
[II] CN1C(=O)C(CC(=O)N2C[C@H](F)C[C@H]2C(=O)N[C@@H](c2ccccc2)c2ccc(C3(C)CC3)c(F)c2)c2ccccc21 (stereo partly shown)
[III] CCn1c(=O)c(C)cn(CC(=O)N2C[C@H](F)C[C@H]2C(=O)N[C@H](c2ccccc2)c2ccc(C3CC(F)(F)C3)c(F)n2)c1=O
[IV] CC1(c2ccc([C@@H](NC(=O)[C@@H]3C[C@@H](F)CN3C(=O)Cn3cnnc3)c3ccccc3)cc2F)CC1
I would appreciate it if you could sort these 4 compounds by IC50, starting from the smallest number. Field: ranking. Enter the labels in the order requested. I, IV, II, III

Numbers sourced from patent US11814367B2.
